# key: entry, value: IC50
- System: L. don. axen.
- TEST NAME: In vitro counter screen, L. don. axen.
- Assay type: cell-based
- STUDY CONDITIONS: read-out: L. don. axen. IC50

SMILES CODE: C[C@H]1CN([C@@H](C)CO)C(=O)c2cccc(NC(=O)c3ccncc3)c2O[C@H]1CN(C)Cc1ccc(-c2ccccc2)cc1
IC50: 6.47 µg/mL

SMILES CODE: C[C@H](CO)N1C[C@H](C)[C@H](CN(C)Cc2ccccc2)Oc2c(NC(=O)c3ccncc3)cccc2C1=O
IC50: > 100 µg/mL

SMILES CODE: C[C@H]1CN([C@@H](C)CO)C(=O)c2cccc(NC(=O)c3ccncc3)c2O[C@H]1CN(C)Cc1ccccc1
IC50: > 100 µg/mL

SMILES CODE: C[C@@H]1CN([C@H](C)CO)C(=O)c2cccc(NC(=O)c3ccncc3)c2O[C@H]1CN(C)Cc1ccccc1
IC50: 84.4 µg/mL

SMILES CODE: C[C@H](CO)N1C[C@H](C)[C@@H](CN(C)Cc2ccc(C(F)(F)F)cc2)Oc2c(NC(=O)c3ccncc3)cccc2C1=O
IC50: 16.3 µg/mL

SMILES CODE: C[C@@H]1CN([C@@H](C)CO)C(=O)c2cccc(NC(=O)c3ccncc3)c2O[C@H]1CN(C)Cc1ccc(-c2ccccc2)cc1
IC50: 13.3 µg/mL

SMILES CODE: COc1ccc(CN(C)C[C@@H]2Oc3c(NC(=O)c4ccncc4)cccc3C(=O)N([C@H](C)CO)C[C@H]2C)cc1
IC50: > 100 µg/mL

###

- Tested on: T. cruzi
- TEST NAME: T. cruzi inhibition assay (beta-galactosidase T. cruzi co-cultured with NIH/3T3 host cells)
- Format: cell-based
- STUDY CONDITIONS: Trypanosoma cruzi, NIH3T3; Table 2
OBSERVABLE: IC50

MOLECULE: Cc1cc(C(=O)Nc2cccc3c2O[C@@H](CN(C)Cc2ccc(Oc4ccccc4)cc2)[C@H](C)CN([C@@H](C)CO)C3=O)n(C)n1 [Compound 35]
OBSERVABLE: IC50
RECORDED RESULT: > 10 µM

MOLECULE: C[C@H]1CN([C@@H](C)CO)C(=O)c2cccc(NC(=O)c3ccncc3)c2O[C@H]1CN(C)Cc1ccc(Oc2ccccc2)cc1 [Compound 29]
OBSERVABLE: IC50
RECORDED RESULT: < 0.0026 µM

MOLECULE: CC(C)N1C[C@@H](C)[C@H](CN(C)Cc2ccc(Oc3ccccc3)cc2)Oc2c(NC(=O)c3ccncc3)cccc2C1=O [Compound 34]
OBSERVABLE: IC50
RECORDED RESULT: < 0.0026 µM
